I'd appreciate it if you could supply activity coefficient values for the items below.
# test_method_notes: activity coefficient (dimensionless); of the first substance listed, at infinite dilution; xn = mol fraction of the nth substance listed
# assay_setup: 323 K; Liquid; Chromatography; x1 = 0
Give bare numbers.

Sample answers from the record:
* CCCCO [butan-1-ol] + CCOS(=O)(=O)[O-].CCn1cc[n+](C)c1 | 1.68
* Cc1ccccc1 [toluene] + CCOS(=O)(=O)[O-].CCn1cc[n+](C)c1 | 5.62
* c1ccccc1 [benzene] + CCOS(=O)(=O)[O-].CCn1cc[n+](C)c1 | 2.88

Here is another molecule to look at.
Query: Name the recorded activity coefficient of the molecule listed here: CO [methanol] + CCOS(=O)(=O)[O-].CCn1cc[n+](C)c1
Reply: 0.4

* * *

# test_method_notes: activity coefficient (dimensionless); of the first substance listed, at infinite dilution; xn = mol fraction of the nth substance listed
# assay_setup: 343.9 K; Liquid; Chromatography; x1 = 0
quantity_measured: activity coefficient
Numbers only.

Quick one: give me activity coefficient for each item below, same order please.
1. c1ccccc1 [benzene] + CCOS(=O)(=O)[O-].CCn1cc[n+](C)c1
2. CCCO [propan-1-ol] + CCOS(=O)(=O)[O-].CCn1cc[n+](C)c1
3. CC(C)=O [acetone] + CCOS(=O)(=O)[O-].CCn1cc[n+](C)c1

Reply:
1: 2.69; 2: 1.05; 3: 1.61

Hey, quick one: what's activity coefficient for each of these?
1. CCCCCO [pentan-1-ol] + CCOS(=O)(=O)[O-].CCn1cc[n+](C)c1
2. CC(C)O [propan-2-ol] + CCOS(=O)(=O)[O-].CCn1cc[n+](C)c1

Reply:
2.36
1.15

* * *

# test_method_notes: activity coefficient (dimensionless); of the first substance listed, at infinite dilution; xn = mol fraction of the nth substance listed
# assay_setup: 375.1 K; Liquid; Chromatography; x1 = 0
Please provide measured activity coefficient for the entries that follow.
One number for each entry.

- CCCCc1ccccc1 [butylbenzene] + CCOS(=O)(=O)[O-].CCn1cc[n+](C)c1: 23.2
- CCCCCc1ccccc1 [pentylbenzene] + CCOS(=O)(=O)[O-].CCn1cc[n+](C)c1: 38
- CCc1ccccc1 [ethylbenzene] + CCOS(=O)(=O)[O-].CCn1cc[n+](C)c1: 8.21

As a next step, examine the molecule that follows.
Query: Look up activity coefficient of CCCc1ccccc1 [propylbenzene] + CCOS(=O)(=O)[O-].CCn1cc[n+](C)c1 and report it.
Reply: 14

* * *

# test_method_notes: activity coefficient (dimensionless); of the first substance listed, at infinite dilution; xn = mol fraction of the nth substance listed
# assay_setup: 343.9 K; Liquid; Chromatography; x1 = 0
Assign labels as follows, please: YES for activity coefficient below 2; NO for activity coefficient equal to or exceeding 2.

* CC(C)(C)O [2-methylpropan-2-ol] + CCOS(=O)(=O)[O-].CCn1cc[n+](C)c1 | YES
* CC#N [acetonitrile] + CCOS(=O)(=O)[O-].CCn1cc[n+](C)c1 | YES
* CCO [ethanol] + CCOS(=O)(=O)[O-].CCn1cc[n+](C)c1 | YES
* CC(C)CO [2-methyl-1-propanol] + CCOS(=O)(=O)[O-].CCn1cc[n+](C)c1 | YES
* CCCCCC(=O)OC [methyl hexanoate] + CCOS(=O)(=O)[O-].CCn1cc[n+](C)c1 | NO

Query: # strict comparison: is reported activity coefficient < 2? input = CCCCC=O [pentanal] + CCOS(=O)(=O)[O-].CCn1cc[n+](C)c1
Reply: NO

Query: Report whether reported activity coefficient is lower than 2 (strictly) for CCC=O [propanal] + CCOS(=O)(=O)[O-].CCn1cc[n+](C)c1
Reply: YES

Query: Would you kindly verify if activity coefficient of CCC(C)(C)O [2-methylbutan-2-ol] + CCOS(=O)(=O)[O-].CCn1cc[n+](C)c1 is strictly less than 2?
Reply: NO

Query: Hello, is activity coefficient of the following compound strictly smaller than 2? Cc1ccccc1 [toluene] + CCOS(=O)(=O)[O-].CCn1cc[n+](C)c1
Reply: NO

* * *

# test_method_notes: activity coefficient (dimensionless); of the first substance listed, at infinite dilution; xn = mol fraction of the nth substance listed
# assay_setup: 364.8 K; Liquid; Chromatography; x1 = 0
quantity_measured: activity coefficient
Answers are plain numbers.

Known results for compounds:
• CCCCCc1ccccc1 [pentylbenzene] + CCOS(=O)(=O)[O-].CCn1cc[n+](C)c1 = 40.3
• CCCCC=O [pentanal] + CCOS(=O)(=O)[O-].CCn1cc[n+](C)c1 = 4.82

Report activity coefficient for every entry below.
1. CCCCc1ccccc1 [butylbenzene] + CCOS(=O)(=O)[O-].CCn1cc[n+](C)c1
2. CCC=O [propanal] + CCOS(=O)(=O)[O-].CCn1cc[n+](C)c1

Reply:
1: 24.7; 2: 1.8

* * *

# test_method_notes: activity coefficient (dimensionless); of the first substance listed, at infinite dilution; xn = mol fraction of the nth substance listed
# assay_setup: 354.5 K; Liquid; Chromatography; x1 = 0
Under this convention, 1 denotes activity coefficient strictly below 3 and 0 denotes activity coefficient at or above 3.

Solved cases below.
• CCCC=O [butanal] + CCOS(=O)(=O)[O-].CCn1cc[n+](C)c1 = 0
• CCC(C)O (stereo not given) [butan-2-ol] + CCOS(=O)(=O)[O-].CCn1cc[n+](C)c1 = 1
• CCCCC(=O)OC [methyl pentanoate] + CCOS(=O)(=O)[O-].CCn1cc[n+](C)c1 = 0
• CCC(=O)OC [methyl propanoate] + CCOS(=O)(=O)[O-].CCn1cc[n+](C)c1 = 0

Okay, now this compound:
Query: Check if activity coefficient falls below 3 for CCCC(=O)OC [methyl butanoate] + CCOS(=O)(=O)[O-].CCn1cc[n+](C)c1 .
Reply: 0

* * *

Give measured activity coefficient for each item. Keep answers brief.
# test_method_notes: activity coefficient (dimensionless); of the first substance listed, at infinite dilution; xn = mol fraction of the nth substance listed
# assay_setup: 322.8 K; Liquid; Chromatography; x1 = 0
Answers are plain numbers.

- CC(C)O [propan-2-ol] + CCOS(=O)(=O)[O-].CCn1cc[n+](C)c1: 1.29
- CCCO [propan-1-ol] + CCOS(=O)(=O)[O-].CCn1cc[n+](C)c1: 1.23
- CCCCCCCC=O [octanal] + CCOS(=O)(=O)[O-].CCn1cc[n+](C)c1: 27.1
- CCCC=O [butanal] + CCOS(=O)(=O)[O-].CCn1cc[n+](C)c1: 3.47
- CCCCCCC=O [heptanal] + CCOS(=O)(=O)[O-].CCn1cc[n+](C)c1: 14

Read the next record carefully.
Query: Let me know recorded activity coefficient for CCO [ethanol] + CCOS(=O)(=O)[O-].CCn1cc[n+](C)c1 , thanks.
Reply: 0.79

* * *

# test_method_notes: activity coefficient (dimensionless); of the first substance listed, at infinite dilution; xn = mol fraction of the nth substance listed
# assay_setup: 354.4 K; Liquid; Chromatography; x1 = 0
Quick rule for you: activity coefficient under 2 gets condition met, anything else gets condition not met.

Example entries and their recorded answers appear below.
- CCC=O [propanal] + CCOS(=O)(=O)[O-].CCn1cc[n+](C)c1: condition met
- CCCCC=O [pentanal] + CCOS(=O)(=O)[O-].CCn1cc[n+](C)c1: condition not met
- c1ccccc1 [benzene] + CCOS(=O)(=O)[O-].CCn1cc[n+](C)c1: condition not met
- CC(C)(C)O [2-methylpropan-2-ol] + CCOS(=O)(=O)[O-].CCn1cc[n+](C)c1: condition met
- CCCCCO [pentan-1-ol] + CCOS(=O)(=O)[O-].CCn1cc[n+](C)c1: condition not met
- CCC(C)(C)O [2-methylbutan-2-ol] + CCOS(=O)(=O)[O-].CCn1cc[n+](C)c1: condition not met

Consider the additional molecule presented here.
Query: Report whether reported activity coefficient is lower than 2 (strictly) for Cc1ccccc1 [toluene] + CCOS(=O)(=O)[O-].CCn1cc[n+](C)c1
Reply: condition not met

* * *

Kindly supply the reported activity coefficient values for the records listed here.
# test_method_notes: activity coefficient (dimensionless); of the first substance listed, at infinite dilution; xn = mol fraction of the nth substance listed
# assay_setup: 322.9 K; Liquid; Chromatography; x1 = 0
One number for each entry.

* CC(C)(C)O [2-methylpropan-2-ol] + CCOS(=O)(=O)[O-].CCn1cc[n+](C)c1 | 1.74
* CCCCCC=O [hexanal] + CCOS(=O)(=O)[O-].CCn1cc[n+](C)c1 | 11.3
* CCC(=O)OC [methyl propanoate] + CCOS(=O)(=O)[O-].CCn1cc[n+](C)c1 | 4.73
* CCCCCCCC [octane] + CCOS(=O)(=O)[O-].CCn1cc[n+](C)c1 | 148
* CCCCCCCCC [nonane] + CCOS(=O)(=O)[O-].CCn1cc[n+](C)c1 | 249

Items follow; give activity coefficient for each.
1. CCCCCCC(=O)OC [methyl heptanoate] + CCOS(=O)(=O)[O-].CCn1cc[n+](C)c1
2. CCCCCCCCCC [decane] + CCOS(=O)(=O)[O-].CCn1cc[n+](C)c1

Reply:
1: 27.1; 2: 389

Cited source for all entries: the NIST ThermoML archive (doi:10.1021/je0602723)
